MEASUREMENT_PROTOCOL: chemical genetic growth profiling, strain panel (AID 1159580);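 also: tested at 20 µM; growth read once vehicle control cultures reached saturation at 30 °C; 1 = growth at the plate median or of vehicle wells; lower values mean less growth of the strain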
TEST_CONDITIONS: S. cerevisiae deletion strains, growth OD, locus YKL190W, strain CNB1, hits give low values
In all, about 5,500 compounds went through this assay and about 2,000 (36%) were called active. Another 18% or so got no clear call; they are omitted. The list shows a part of the results.
MEASUREMENT_TYPE: normalized growth

Please look up its normalized growth: "CC(=O)NC(=O)/C(C#N)=C/N1CCN(Cc2ccccc2)CC1"
1 (inactive)

Also check CNS(=O)(=O)c1cc(Br)ccc1S(=O)c1ccccc1C(=O)O (stereo unspecified)
0.982 (inactive)
